assay-target: Metabotropic glutamate receptor 3 (Rattus norvegicus)
run-description: PubChem AID 624028
condition-details: TREx293 mGlu3/Galpha15, calcium fluorescence, antagonist mode
property: pIC50
One number for each entry, as −log10 of the molar value.

Quick check: pIC50 of `COc1ccc(C#Cc2ccc(C(=O)N3CCC[C@@H](CO)C3)cc2)cc1` ?
6.19
